B1: PAIP1 peptide 126-141 (Polyadenylate-binding protein-interacting protein 1), 16-mer library wild type / PABPC1 PABC (PABPC1 PABC domain, residues 544-623) (parent)
chain 1: SKLSVNAPEFYPSGYS
chain 2: PLTASMLASAPPQEQKQMLGERLFPLIQAMHPTLAGKITGMLLEIDNSELLHMLESPESLRSKVDEAVAVLQAHQAKEAA

variants of: B1; experiment: proteomic peptide phage display deep mutational scan (ProP-PD DMS): M13 P8 16-mer library selected against immobilised GST-tagged bait for four days (rounds), NGS of the eluted pools per day and pseudo-replica; details: with PABPC1 PABC (PABPC1 PABC domain, residues 544-623); bait immobilised on MaxiSorp plates (10 µg), library pre-cleared on GST, 2 h binding at 4 °C, five washes; one round per day, days 1-4; value from days 2 and 3; keep out of graded; scale: average fractional NGS count over selection days 2 and 3
Listed next: entries and their corresponding screen value.
Measurement label: screen value

Variant label	Numeric result
chain 1 Y11N	0.000309
chain 1 N6M	0.000149
chain 1 K2G	0.000321
chain 1 V5Y	0
chain 1 S13I	0.000936
chain 1 S4R	0.000365
chain 1 P12S	0.00133
chain 1 A7V	0.000178
chain 1 V5N	0.000152
chain 1 Y11K	0.000481
chain 1 N6P	0
chain 1 S4F	0.000754
chain 1 Y11E	0.00111
chain 1 S1I	0.00076
chain 1 Y11G	0.000528
chain 1 Y11I	0.000574
chain 1 K2I	0
chain 1 P12Q	0.000152
chain 1 K2P	0.00022
chain 1 S13D	0
chain 1 L3W	0.000852
chain 1 Y11R	0.000552
